These data points were gathered from paper PMC10434272.

Target: EtROP2 (rhoptry kinase 2) (Eimeria tenella, UniProt U6KH66)
Sequence (U6KH66 entry or part of it): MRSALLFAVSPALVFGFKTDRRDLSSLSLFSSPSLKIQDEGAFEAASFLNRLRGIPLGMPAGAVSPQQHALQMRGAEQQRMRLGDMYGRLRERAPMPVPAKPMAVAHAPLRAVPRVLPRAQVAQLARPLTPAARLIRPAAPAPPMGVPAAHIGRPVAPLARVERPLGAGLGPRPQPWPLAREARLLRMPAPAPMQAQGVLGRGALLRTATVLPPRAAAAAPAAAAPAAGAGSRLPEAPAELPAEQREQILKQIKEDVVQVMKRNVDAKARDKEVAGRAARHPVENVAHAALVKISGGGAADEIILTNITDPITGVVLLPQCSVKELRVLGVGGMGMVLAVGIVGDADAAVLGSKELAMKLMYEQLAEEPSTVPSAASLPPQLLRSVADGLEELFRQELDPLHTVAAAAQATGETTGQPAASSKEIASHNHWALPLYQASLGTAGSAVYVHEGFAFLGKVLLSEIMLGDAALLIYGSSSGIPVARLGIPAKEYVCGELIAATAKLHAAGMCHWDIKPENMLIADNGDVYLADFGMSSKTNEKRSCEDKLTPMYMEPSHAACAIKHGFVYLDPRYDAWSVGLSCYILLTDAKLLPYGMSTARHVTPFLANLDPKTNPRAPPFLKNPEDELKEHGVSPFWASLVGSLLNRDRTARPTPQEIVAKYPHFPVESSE
Assay: ADP-Glo kinase assay with p120-TLTR peptide substrate, […] ATP
property.measured: IC50 (µM)
Response body: numeric value in µM, unit text excluded.

Briefly, IC50 measured for CN[C@@H]1C[C@H]2O[C@@](C)([C@@H]1OC)n1c3ccccc3c3c4c(c5c6ccccc6n2c5c31)C(=O)NC4 : 0.291
